Please go through the items and note down their Excess HSA synergy score.
System: PEO-1
Assay: Excess HSA synergy score (sum over dose matrix of excess over highest single agent) (score (summed % response)); higher = less synergy / more antagonism (negative = synergy)
Conditions: 72 h; read-out: viability/apoptosis luminescence (CellTiter-Glo or Caspase3-Glo / not stated per table); matrix design: 6x6, 5-fold dilutions (primary screen)
Structures can show the parent of a compound that is named as a salt. Over roughly 1,500 compounds, “Excess HSA synergy score (sum over dose matrix of excess over highest single agent)” has its median near 43; the lowest 2% begin near -900. This is one part of a sample in which the lowest values are shown more often than they occur.

# map each compound to its Excess HSA synergy score
1. CC(C)N(CC[C@H](c1ccccc1)c1cc(CO)ccc1O)C(C)C + CC[C@H](NC(=O)[C@H](C)NC)C(=O)N1C[C@@H](O)C[C@H]1Cc1c(-c2[nH]c3cc(F)ccc3c2C[C@@H]2C[C@H](O)CN2C(=O)[C@H](CC)NC(=O)[C@H](C)NC)[nH]c2cc(F)ccc12 [Birinapant]
2. CO[C@@H]1[C@H](N(C)C(=O)c2ccccc2)C[C@H]2O[C@]1(C)n1c3ccccc3c3c4c(c5c6ccccc6n2c5c31)C(=O)NC4=O [Stauprimide] + CC[C@H](NC(=O)[C@H](C)NC)C(=O)N1C[C@@H](O)C[C@H]1Cc1c(-c2[nH]c3cc(F)ccc3c2C[C@@H]2C[C@H](O)CN2C(=O)[C@H](CC)NC(=O)[C@H](C)NC)[nH]c2cc(F)ccc12 [Birinapant]
3. Cc1[nH]c(/C=C2\C(=O)Nc3ccc(S(=O)(=O)N(C)c4cccc(Cl)c4)cc32)c(C)c1C(=O)N1CCN(C)CC1 + CC[C@H](NC(=O)[C@H](C)NC)C(=O)N1C[C@@H](O)C[C@H]1Cc1c(-c2[nH]c3cc(F)ccc3c2C[C@@H]2C[C@H](O)CN2C(=O)[C@H](CC)NC(=O)[C@H](C)NC)[nH]c2cc(F)ccc12 [Birinapant]
4. O[C@@H](CNC[C@H](O)[C@H]1CCc2cc(F)ccc2O1)[C@@H]1CCc2cc(F)ccc2O1 (racemic) [rac Nebivolol hydrochloride] + CC[C@H](NC(=O)[C@H](C)NC)C(=O)N1C[C@@H](O)C[C@H]1Cc1c(-c2[nH]c3cc(F)ccc3c2C[C@@H]2C[C@H](O)CN2C(=O)[C@H](CC)NC(=O)[C@H](C)NC)[nH]c2cc(F)ccc12 [Birinapant]
5. CN1CCCN(C(=O)c2cccc(-c3ccc(/C=C4/C(=O)Nc5ccc(Cl)cc54)o3)c2)CC1 + CC[C@H](NC(=O)[C@H](C)NC)C(=O)N1C[C@@H](O)C[C@H]1Cc1c(-c2[nH]c3cc(F)ccc3c2C[C@@H]2C[C@H](O)CN2C(=O)[C@H](CC)NC(=O)[C@H](C)NC)[nH]c2cc(F)ccc12 [Birinapant]
6. Cc1[nH]c(/C=C2\C(=O)Nc3ccc(S(=O)(=O)Cc4c(Cl)cccc4Cl)cc32)c(C)c1C(=O)N1CCC[C@@H]1CN1CCCC1 + CC[C@H](NC(=O)[C@H](C)NC)C(=O)N1C[C@@H](O)C[C@H]1Cc1c(-c2[nH]c3cc(F)ccc3c2C[C@@H]2C[C@H](O)CN2C(=O)[C@H](CC)NC(=O)[C@H](C)NC)[nH]c2cc(F)ccc12 [Birinapant]

Response:
1. 309
2. 168
3. -71.9
4. 50.2
5. 92.9
6. -132
